- target: human CCR8 (human, UniProt P51685 1-355)
- procedure details: cell-based or functional assay
Readings of residual hCCL1 (100 nM) Gi2 response, protocol #3, mAb 0.05 µg/mL for the listed binders
// units = %; emit number, no label

Some solved cases for reference:
Q) What does the record list as residual hCCL1 (100 nM) Gi2 response, protocol #3, mAb 0.05 µg/mL for anti-CCR8 mAb 1-16 (antibody, V domains shown, Murine hybridoma mAb) VH: EVQLQQSGPELVKPGASVKISCKASVYSFTGSYMHWVKQSHVKSLEWIGRINPYNGATSYNQNFKDKASLTVDKSSSTAYMELHSLTSEDSAVYYCATTLLRLLDYWGQGTTLTVSS VL: DIVMTQAAFSNPVTLGTSASISCRSSKSLLHSNGITYLYWYLQKPGQSPQLLIYQMSNLASGVPDRFSSSGSGTDFTLRISRVEAEDVGVYYCAQNLELPWTFGGGTKLEIK ?
A) 96

Q) What does the record list as residual hCCL1 (100 nM) Gi2 response, protocol #3, mAb 0.05 µg/mL for anti-CCR8 mAb 1-23 (antibody, human IgG1, kappa, V domains shown, Humanized mAb, human IgG1 / kappa) VH: QVQLVQSGPEVVKPGASVKVSCKTSGYTFTEYTIHWVRQAPGQSLEWVGGINPNNGNTRYDQKFQGRVTITRDKSASTAYMELRSLTSEDTAVYYCARVARSSGSGPYAMDYWGQGTTVTVSS VL: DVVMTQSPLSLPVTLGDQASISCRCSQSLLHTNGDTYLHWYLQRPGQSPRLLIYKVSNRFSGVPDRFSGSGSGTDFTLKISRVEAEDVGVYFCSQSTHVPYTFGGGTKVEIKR ?
A) 86

Note: attention shifts to another entry.
Q) What does the record list as residual hCCL1 (100 nM) Gi2 response, protocol #3, mAb 0.05 µg/mL for anti-CCR8 mAb 1-24 (antibody, human IgG1, kappa, V domains shown, Humanized mAb, human IgG1 / kappa) VH: QVQLQQSGPEVVKPGASVKVSCKTSGYTFTEYTIHWVRQSHGQSLEWVGGINPNNGNTRYDQKFKGRVTITIDKSSSTAYMELRSLTSEDTAVYYCARVARSSGSGPYAMDYWGQGTTVTVSS VL: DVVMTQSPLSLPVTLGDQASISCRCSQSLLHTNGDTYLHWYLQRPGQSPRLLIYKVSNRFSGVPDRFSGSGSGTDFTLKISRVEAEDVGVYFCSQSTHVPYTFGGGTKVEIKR ?
A) 73
